The measured values listed here are drawn from patent US20150352108A1.

Target: TBK1 (Homo sapiens)
Construct: His-tag; made in house; host or cells: Sf9 insect cells
Sequence (Q9UHD2 1-729): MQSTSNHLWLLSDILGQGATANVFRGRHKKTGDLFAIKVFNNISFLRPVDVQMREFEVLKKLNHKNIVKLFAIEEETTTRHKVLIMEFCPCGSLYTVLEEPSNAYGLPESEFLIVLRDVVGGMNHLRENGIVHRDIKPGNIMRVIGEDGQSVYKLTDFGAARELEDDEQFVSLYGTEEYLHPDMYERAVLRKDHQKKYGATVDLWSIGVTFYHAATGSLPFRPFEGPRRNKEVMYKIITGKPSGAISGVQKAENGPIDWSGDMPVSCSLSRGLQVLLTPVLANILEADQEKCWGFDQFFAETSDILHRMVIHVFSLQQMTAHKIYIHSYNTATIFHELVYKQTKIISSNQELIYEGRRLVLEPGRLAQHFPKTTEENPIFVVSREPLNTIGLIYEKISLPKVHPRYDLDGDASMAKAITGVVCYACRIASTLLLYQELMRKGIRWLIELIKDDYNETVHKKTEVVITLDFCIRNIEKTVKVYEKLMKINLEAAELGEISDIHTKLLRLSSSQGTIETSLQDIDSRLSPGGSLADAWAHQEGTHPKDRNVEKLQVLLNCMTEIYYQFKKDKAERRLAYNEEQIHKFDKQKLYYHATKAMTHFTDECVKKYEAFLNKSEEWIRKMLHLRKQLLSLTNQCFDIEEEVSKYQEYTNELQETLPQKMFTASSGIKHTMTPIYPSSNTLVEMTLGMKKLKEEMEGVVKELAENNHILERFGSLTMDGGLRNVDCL
Test: In-vitro TBK1 kinase assay ([γ33]ATP filter-plate)
Format: biochemical
Settings: text bins; read-out: IC50 for inhibition of the kinase activity of TBK1
measurement_kind: IC50

Hi there! I need IC50 for each item below, if you can.
1. COc1cc(Nc2nccc(-c3ccc(OC4CCOCC4)c(C#N)c3)n2)ccc1S(=O)(=O)NCCCN1CCOCC1 [Example 176]
2. CC(C)N1CCN(C(=O)Cc2cccc(Nc3nccc(-c4ccc(OC5CCOCC5)c(C#N)c4)n3)c2)CC1 [compound 408]
3. COc1cc(Nc2nccc(-c3ccc(OC)c(C#N)c3)n2)cc(OCCN2CCOCC2)c1 [Example 138]
4. COc1cc(Nc2nccc(-c3ccc(OC4CCOCC4)c(C#N)c3)n2)ccc1S(=O)(=O)NCCCO [Example 155]
5. COc1ccc(-c2ccnc(Nc3ccc(N4CCCNC(=O)C4)c(OC)c3)n2)cc1C#N [Example 104]
6. N#Cc1cc(-c2ccnc(Nc3ccc(S(=O)(=O)N4CCOCC4)cc3)n2)ccc1OC1CCOCC1 [compound 363]

output:
1: < 10 nM; 2: < 10 nM; 3: 10 to 100 nM; 4: < 10 nM; 5: < 10 nM; 6: < 10 nM

Could you tell me IC50 for each of these molecules? They are listed below.
1. COc1cc(Nc2nccc(-c3ccc(OC(C)C)c(C#N)c3)n2)cc(OC)c1 [Example 272]
2. N#Cc1cc(-c2ccnc(Nc3ccc(N4CCOCC4)cc3)n2)ccc1NC1CCOCC1 [compound 468]

output:
["10 to 100 nM", "< 10 nM"]

Batch of 2 molecules: report IC50 for each.
1. COc1cc(Nc2nccc(-c3ccc(OC4CCOCC4)c(C#N)c3)n2)ccc1CN1CCN(CCO)CC1 [compound 477]
2. N#Cc1cc(-c2ccnc(Nc3ccc(N4CCOCC4)cc3)n2)ccc1OC1CCN(C=O)CC1 [Example 242]

output:
1: 10 to 100 nM; 2: < 10 nM
